Molecular target: Ybr033w (UniProt P38073)
Sequence: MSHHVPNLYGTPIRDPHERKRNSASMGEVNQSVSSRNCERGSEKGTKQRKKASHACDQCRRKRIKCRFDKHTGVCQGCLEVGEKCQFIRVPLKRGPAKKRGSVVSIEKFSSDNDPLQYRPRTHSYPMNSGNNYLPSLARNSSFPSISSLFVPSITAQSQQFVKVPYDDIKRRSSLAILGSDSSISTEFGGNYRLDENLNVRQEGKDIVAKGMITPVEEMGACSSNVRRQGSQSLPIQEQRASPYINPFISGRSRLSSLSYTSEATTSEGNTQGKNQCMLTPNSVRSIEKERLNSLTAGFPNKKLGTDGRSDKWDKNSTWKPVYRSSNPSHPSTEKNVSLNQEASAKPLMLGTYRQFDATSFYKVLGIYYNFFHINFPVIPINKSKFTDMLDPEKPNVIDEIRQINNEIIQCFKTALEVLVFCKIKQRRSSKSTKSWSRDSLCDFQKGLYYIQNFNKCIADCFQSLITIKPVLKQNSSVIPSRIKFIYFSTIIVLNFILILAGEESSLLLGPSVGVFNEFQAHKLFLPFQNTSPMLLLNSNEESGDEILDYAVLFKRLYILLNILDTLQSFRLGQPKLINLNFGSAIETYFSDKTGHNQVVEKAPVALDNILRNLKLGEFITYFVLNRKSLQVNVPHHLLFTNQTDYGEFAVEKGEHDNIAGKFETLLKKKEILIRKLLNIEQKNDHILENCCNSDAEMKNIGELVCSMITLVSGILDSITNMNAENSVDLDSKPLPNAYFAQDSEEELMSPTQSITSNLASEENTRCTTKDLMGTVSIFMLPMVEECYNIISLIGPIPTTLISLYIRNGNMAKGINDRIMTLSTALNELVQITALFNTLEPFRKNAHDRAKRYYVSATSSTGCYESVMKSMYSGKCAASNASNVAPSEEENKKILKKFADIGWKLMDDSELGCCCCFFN
Experiment: PBM E-score (8-mer binding enrichment) (E-score (-0.5 to 0.5)); higher = stronger / more preferred TF binding
Conditions: protein concentration: 200 nM; construct: GST-full length
Over roughly 33,000 sequences, “E-score (-0.5 to 0.5)” has its median near -0.012; the highest 2% begin near 0.29. The entries come from a sample that favours the highest values as a whole.
Lab note: compare PBM E-score against 0.1. Equal or greater, write Criterion met. Smaller, write Criterion not met.

Query: # check: PBM E-score of "ATATTACC" is greater than or equal to 0.1
Reply: Criterion met

Query: # check: PBM E-score of "GAAGTGAA" is greater than or equal to 0.1
Reply: Criterion met

Query: # check: PBM E-score of "ACCCTTCC" is greater than or equal to 0.1
Reply: Criterion not met

Query: # check: PBM E-score of "AGAGTAAG" is greater than or equal to 0.1
Reply: Criterion met

Query: # check: PBM E-score of "GTGTGTGA" is greater than or equal to 0.1
Reply: Criterion not met

Query: # check: PBM E-score of "ATTATACA" is greater than or equal to 0.1
Reply: Criterion met

Query: # check: PBM E-score of "ATATTACA" is greater than or equal to 0.1
Reply: Criterion met

Query: # check: PBM E-score of "ATTATAAG" is greater than or equal to 0.1
Reply: Criterion met

Query: # check: PBM E-score of "AGAGTAAA" is greater than or equal to 0.1
Reply: Criterion not met

Query: # check: PBM E-score of "ATTTTCTG" is greater than or equal to 0.1
Reply: Criterion not met

Query: # check: PBM E-score of "ATGCGGCA" is greater than or equal to 0.1
Reply: Criterion not met

Query: # check: PBM E-score of "AAACTCCG" is greater than or equal to 0.1
Reply: Criterion met

Query: # check: PBM E-score of "CTATCTGC" is greater than or equal to 0.1
Reply: Criterion not met

Query: # check: PBM E-score of "TAAGTGAA" is greater than or equal to 0.1
Reply: Criterion met

Query: # check: PBM E-score of "CCACTTAC" is greater than or equal to 0.1
Reply: Criterion not met

Query: # check: PBM E-score of "GTTATATA" is greater than or equal to 0.1
Reply: Criterion met

Query: # check: PBM E-score of "AGAGTAAT" is greater than or equal to 0.1
Reply: Criterion met

Query: # check: PBM E-score of "ATAGTAAT" is greater than or equal to 0.1
Reply: Criterion met

Query: # check: PBM E-score of "GTGTTAGA" is greater than or equal to 0.1
Reply: Criterion not met

Query: # check: PBM E-score of "TATCACAA" is greater than or equal to 0.1
Reply: Criterion met

Query: # check: PBM E-score of "ATTATATC" is greater than or equal to 0.1
Reply: Criterion met

Query: # check: PBM E-score of "AAAGTGAA" is greater than or equal to 0.1
Reply: Criterion met
